system: SNB-19 CNS; experiment: NCI tumour cell line growth inhibition, 48 h
Assay Readout: TGI

Here's what some known entries look like.
CC1=CN(c2ccccc2)S2=C1c1sc3c(c1N2c1ccc(Br)cc1)CCCC3 (stereo not drawn)
> 100 µM
NS(=O)(=O)N(c1cc(C(F)(F)F)cc(C(F)(F)F)c1)C1CCN(Cc2ccc(F)cc2)CC1
27.8 µM
COc1cc2c(cc1OC)C1Cc3sccc3CN1CC2 (stereo not drawn)
> 100 µM
C[n+]1c(-c2ccccc2)cc2/c(=C\c3ccccc3)c3ccccc3n21
24 µM
Cc1ccc(-c2c(C#N)[n+](=O)c3cc(Cl)c(Cl)cc3n2[O-])cc1
> 47.1 µM

Name the reported TGI value associated with the molecule COC1CC2C3/C(=N/Nc4ccc([N+](=O)[O-])cc4[N+](=O)[O-])CCC2(C)C3C1 (stereo not drawn) > 10 µM

Next up: CNc1ccc(C(=O)CC(O)CCC(C)C2OC(=O)CC(O)CC(=O)CC(O)CC(O)CC(O)CC(O)CC3(O)CC(O)C(C(=O)NCCN(C)C)C(CC(OC4OC(C)C(O)C(NC(=O)CN5CCN(CCO)CC5)C4O)/C=C/C=C/C=C/C=C\C=C/C=C/C=C/C2C)O3)cc1 (stereo not drawn) > 50 µM

Here is the next molecule: COc1ccc(C2N(c3ccc(F)c([N+](=O)[O-])c3)C(=O)N3C(c4ccc(OC)cc4)N(c4ccc(F)c([N+](=O)[O-])c4)C(=O)N23)cc1 (stereo not drawn) > 100 µM
